Tested on: NRF2 (nuclear factor erythroid 2-related factor 2)
Test: NRF2 +/-GSH activation assay (DiscoverX PathHunter NRF2 translocation kit, U2OS cells)
Type: cell-based
Details: +GSH; normalised to DMF high control
reportedMetric: NRF2 activation +GSH Emax (%)
Respond numerically; units are % and should not be typed.

| compound | NRF2 activation +GSH Emax (%) |
| --- | --- |
| C=C(Cc1noc(CCCCCCCC)n1)C(=O)O [Example 3] | 199 |
| C=C(Cc1nc(C(F)(F)c2ccc(F)cc2)no1)C(=O)O [Example 125] | 26 |
| C=C(Cc1nc(C23CC4CC(CC(C4)C2)C3)no1)C(=O)O [Example 66] | 14 |
| C=C(CC(=O)OCCCCCCCC)C(=O)O [4-octyl itaconate, 4-Octyl itaconate, reference compound] | 148 |

Exam item: Test system NRF2 (nuclear factor erythroid 2-related factor 2); read-out NRF2 activation +GSH Emax; what value for C=C(Cc1nc(C2(c3cc(Cl)c(F)c(Cl)c3)CC2)no1)C(=O)O [Example 133] ?
Marked response: 281

Exam item: Try this compound next: C=C(Cc1nc(C2(c3ccc(OC)cc3)CC2)no1)C(=O)O [Example 45]
Marked response: 9

Exam item: Try this compound next: C=C(Cc1nc(CCCCCCCCC(F)(F)F)no1)C(=O)O [Example 60]
Marked response: 110

----------
Assay: Hepatocyte stability assay, human
Format: in vitro ADME
Settings: human, hepatocytes, Hepatocyte stability Clint
reportedMetric: log10(hepatocyte CLint at 10 μM) (log10 of the value in µL/min/1e6 cells)
In our notation, the value equals log10 of hepatocyte CLint at 10 μM in µL/min/1e6 cells.

| compound | log10(hepatocyte CLint at 10 μM) |
| --- | --- |
| C=C(Cc1nc(Cc2ccc(C3(CCC)CC3)cc2)no1)C(=O)O | 1.83 |

Exam item: Recorded log10(hepatocyte CLint at 10 μM) for `C/C(=C\c1nc(C2(c3ccc(Br)cc3)CC2)no1)C(=O)O` , please?
Marked response: 1.84

Exam item: Try this compound next: `C=C(Cc1nc(C(F)(F)c2ccc(S(F)(F)(F)(F)F)cc2)no1)C(=O)O`
Marked response: 1.15

Exam item: Try this compound next: `C=C(Cc1nc(C(F)(F)c2cc(Cl)c(F)c(Cl)c2)no1)C(=O)O`
Marked response: 1.36

Exam item: Try this compound next: `C=C(Cc1nc(C2(c3cc(F)c(Cl)c(F)c3)CC2)no1)C(=O)O`
Marked response: 1.49

Exam item: Try this compound next: `C=C(Cc1nc(CCCCCCCC)co1)C(=O)O`
Marked response: 2.59

Exam item: Try this compound next: `C=C(Cc1noc(C2(c3ccc(Br)cc3)CC2)n1)C(=O)O`
Marked response: 1.58

Exam item: Try this compound next: C=C(Cc1nc(C(C)CCCCCC(F)(F)F)no1)C(=O)O (stereo not shown)
Marked response: 0.70

Exam item: Try this compound next: `C=C(Cc1nc(-c2ccc(OCc3ccccc3)cc2)no1)C(=O)O`
Marked response: 1.89

----------
System: NRF2 (nuclear factor erythroid 2-related factor 2)
Experiment: NRF2 +/-GSH activation assay (DiscoverX PathHunter NRF2 translocation kit, U2OS cells)
Assay type: cell-based
Conditions: +GSH; normalised to DMF high control
We begin with a simple list: items and their reported NRF2 activation +GSH Emax.
Respond numerically; units are % and should not be typed.

| mol | targetSystem | reportedMetric | recordedMeasurement |
| --- | --- | --- | --- |
| C=C(Cc1nc(CCCCCCCC(F)(F)F)no1)C(=O)O | NRF2 (nuclear factor erythroid 2-related factor 2) | NRF2 activation +GSH Emax | 149 |

Lab note: next compound to report on.
Exam item: Recorded NRF2 activation +GSH Emax for `C=C(Cc1noc(Cc2ccc(CCCC)cc2)n1)C(=O)O` , please?
Marked response: 183

----------
We begin with a simple list: items and their reported NRF2 activation +GSH Emax.
System: NRF2 (nuclear factor erythroid 2-related factor 2)
Assay: NRF2 +/-GSH activation assay (DiscoverX PathHunter NRF2 translocation kit, U2OS cells)
Format: cell-based
Details: +GSH; normalised to DMF high control
# output: numeric value plus its unit

Past entries and their recorded results:
| compound | targetSystem | NRF2 activation +GSH Emax |
| --- | --- | --- |
| C=C(C(=O)O)C(OC)c1nc(CCCCCCCC)no1 (stereo not shown) [Example 110] | NRF2 (nuclear factor erythroid 2-related factor 2) | 132% |
| C=C(Cc1nc(C2(c3ccc(Cl)cc3)CC2)no1)C(=O)O [Example 10] | NRF2 (nuclear factor erythroid 2-related factor 2) | 53% |
| C=C(Cc1nc(CCCCCC(F)(F)CC(F)(F)F)no1)C(=O)O [Example 87] | NRF2 (nuclear factor erythroid 2-related factor 2) | 70% |

Exam item: Recorded NRF2 activation +GSH Emax for C=C(Cc1nc(-c2ccc(CCCC)cc2)no1)C(=O)O [Example 18] , please?
Marked response: 159%

Exam item: Try this compound next: C=C(Cc1nc(Cc2ccc(CCC)cc2)no1)C(=O)O [Example 70]
Marked response: 147%

Exam item: Try this compound next: C=C(Cc1nc(CCCc2ccc(Cl)cc2)no1)C(=O)O [Example 33]
Marked response: 160%

Exam item: Try this compound next: C=C(Cc1nc(C(F)(F)c2ccc(SC(F)(F)F)cc2)no1)C(=O)O [Example 155]
Marked response: 123%

Exam item: Try this compound next: C=C(Cc1nc(CCC#CCCCC)no1)C(=O)O [Example 57]
Marked response: 56%

Exam item: Try this compound next: C=C(Cc1nc(C2(c3ccc(C(F)(F)F)cc3)CC2)no1)C(=O)O [Example 22]
Marked response: 62%

Exam item: Try this compound next: C=C(Cc1nc(CCc2ccc(CC)cc2)no1)C(=O)O [Example 41]
Marked response: 103%

----------
We begin with a simple list: items and their reported hepatocyte CLint at 10 μM.
Experiment: Hepatocyte stability assay, mouse
Assay type: in vitro ADME
Details: mouse, hepatocytes, Hepatocyte stability Clint
Method: Defrosted cryo-preserved hepatocytes (viability >70%) were used to determine the metabolic stability of a compound via calculation of intrinsic clearance (CIint; a measure of the removal of a compound from the liver in the absence of blood flow and cell binding). […] The metabolic stability in hepatocytes assay involves a time-dependent reaction using both positive and negative controls. […] 80 μL of clear supernatant was removed and mixed with 80 μL of deionised water before being analysed by LC-MS/MS. […]
Respond numerically; units are µL/min/1e6 cells and should not be typed.

Past entries and their recorded results:
| compound | hepatocyte CLint at 10 μM [µL/min/1e6 cells] |
| --- | --- |
| C=C(Cc1nc(C2(c3cc(F)c(Cl)c(F)c3)CC2)no1)C(=O)O [Example 135] | 159 |
| C=C(Cc1nc(C(F)(F)c2ccc(SC(F)(F)F)cc2)no1)C(=O)O [Example 155] | 87 |
| C=C(Cc1nc(Cc2cc(Cl)c(F)c(Cl)c2)no1)C(=O)O [Example 134] | 17 |
| C=C(Cc1nc(C(F)(F)c2ccc(Br)c(Cl)c2)no1)C(=O)O [Example 154] | 203 |

Exam item: Recorded hepatocyte CLint at 10 μM for C=C(Cc1nc(CCCCCCCC(F)(F)F)no1)C(=O)O [Example 11] , please?
Marked response: 56

----------
We begin with a simple list: items and their reported NRF2 activation +GSH Emax.
Tested on: NRF2 (nuclear factor erythroid 2-related factor 2)
Assay: NRF2 +/-GSH activation assay (DiscoverX PathHunter NRF2 translocation kit, U2OS cells)
Assay type: cell-based
Settings: +GSH; normalised to DMF high control
# output: numeric value plus its unit

Past entries and their recorded results:
| compound | NRF2 activation +GSH Emax |
| --- | --- |
| CCCCOc1ccc(-c2noc(/C=C(\C)C(=O)O)n2)cc1 | 15% |
| C=C(Cc1nc(CCCCCCCC(F)F)no1)C(=O)O | 105% |
| C=C(Cc1nc(CCCCCCCC)co1)C(=O)O | 172% |
| C=C(Cc1nc(C(C)(C)CCCCCC)no1)C(=O)O | 137% |
| C=C(Cc1nc(Cc2ccc3ccccc3c2)no1)C(=O)O | 44% |
| C=C(Cc1nc([C@@H](C)CCCCCC)no1)C(=O)O | 81% |
| C=C(Cc1nc(-c2ccc(O[C@H](C)CC)cc2)no1)C(=O)O | 139% |
| C=C(Cc1nc(CCc2ccc(CCC)cc2)no1)C(=O)O | 181% |
| C=C(Cc1nc(CCCCCCC(F)(F)CF)no1)C(=O)O | 86% |

Exam item: Recorded NRF2 activation +GSH Emax for C=C(Cc1nc(C(C)CCCCCC)no1)C(=O)O (stereo not shown) , please?
Marked response: 167%

----------
Assay: Hepatocyte stability assay, human
Assay type: in vitro ADME
Conditions: human, hepatocytes, Hepatocyte stability T½
We begin with a simple list: items and their reported half-life at 10 μM.
Respond numerically; units are min and should not be typed.

| compound | half-life at 10 μM (min) |
| --- | --- |
| C=C(C(=O)O)C(O)c1nc(CCCCCCCC)no1 (stereo not shown) [Example 108] | 163 |
| C=C(Cc1nc(Cc2ccc(CCCC)cc2)no1)C(=O)O [Example 20] | 24 |
| C=C(Cc1nc(Cc2ccc(CCC)cc2)no1)C(=O)O [Example 70] | 117 |
| C=C(Cc1noc(C2(c3ccc(Br)cc3)CC2)n1)C(=O)O [Example 89] | 41 |
| C=C(Cc1nc(C2(c3ccc(Cl)cc3)CCC2)no1)C(=O)O [Example 25] | 104 |
| C=C(Cc1nc(Cc2ccc(C3(CCC)CC3)cc2)no1)C(=O)O [Example 147] | 22 |
| C=C(Cc1noc(C(F)(F)CCCCCCC)n1)C(=O)O [Example 83] | 5 |
| C=C(Cc1ccc(CCCCCCCC)nn1)C(=O)O [Example 116] | 25 |
| C=C(Cc1nc([C@H](C)CCCCCC)no1)C(=O)O [Example 40] | 66 |
| C=C(Cc1nc(C(C)CCCCCC)no1)C(=O)O (stereo not shown) [Example 8] | 51 |

Exam item: Recorded half-life at 10 μM for C=C(Cc1nc(C2CCCCCCC2)no1)C(=O)O [Example 63] , please?
Marked response: 169

Exam item: Try this compound next: C=C(Cc1nc(C2(c3cc(Cl)c(F)c(Cl)c3)CC2)no1)C(=O)O [Example 133]
Marked response: 19

Exam item: Try this compound next: C=C(Cc1nc(-c2ccc(OCCCC(F)(F)F)cc2)no1)C(=O)O [Example 146]
Marked response: 41
